system-name: Prostaglandin F2-alpha receptor (Sheep)
method-description: Binding potency towards Prostaglandin F2 alpha receptor (competitive binding) with natural [3H]-PGF 2 alpha in ovine luteal cells (OLC)
value-type: IC50

So what does the record say about IC50 for `[N-]=[N+]=Nc1ccc(CC[C@H](O)/C=C/[C@@H]2[C@@H](C/C=C\CCCC(=O)O)[C@@H](O)C[C@H]2O)cc1I` ?
0.35 µM

* * *

system-name: Prostaglandin F2-alpha receptor (Sheep)
method-description: Binding potency towards Prostaglandin F2 alpha receptor (competitive binding) with natural [3H]-PGF 2 alpha in ovine luteal cells (OLC)
pIC50 values, listed per item
Lab note: report pIC50 as minus log10 of the concentration in molar units, number only.

{"compound-structure": "[N-]=[N+]=Nc1cc(O)cc(OC[C@H](O)/C=C/[C@@H]2[C@@H](C/C=C\\CCCC(=O)O)[C@@H](O)C[C@H]2O)c1", "pIC50": 4.96}

Now consider the entry below.
Dear colleague, I am looking for the recorded pIC50 of the following compound: `[N-]=[N+]=Nc1ccc(CC[C@H](O)/C=C/[C@@H]2[C@@H](C/C=C\CCCC(=O)O)[C@@H](O)C[C@H]2O)c(O)c1`
5.21
